test system: 422866-222-R5-J1-PDC complex spheroid viability; assay: Anticancer human tumor 422866-222-R5-J1-PDC patient-derived pancreatic adenocarcinoma cell line growth inhibition [POLQ]; conditions: second compound 3.16 µM; first compound 3.16 µM; stronger effect = lower value;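 note: spheroids exposed to compounds for one week before readout; percent of DMSO vehicle wells luminescence so 100% = untreated viability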
MEASURED_ENDPOINT: viability, T/C (%)

[[record]]
molecule = "CC1COCCN1c1cc(-c2ccnn2C)c2ccnc(-c3ccn[nH]3)c2n1 (stereo not given) + Cc1cccc(N(C)C(=O)C2C(O)CCN2c2nc(C)cc(C(F)(F)F)c2C#N)c1"
units = "%"
readout_value = 74.3

[[record]]
molecule = "CNCc1ccc(-c2[nH]c3cc(F)cc4c3c2CCNC4=O)cc1 + Nc1ccc(C#CCN(C(=O)Cc2ncc(C(F)(F)F)cc2C(F)(F)F)c2ccc(F)cc2)nn1"
units = "%"
readout_value = 87.4

[[record]]
molecule = "COc1cccc2c1C(=O)c1c(O)c3c(c(O)c1C2=O)CC(O)(C(=O)CO)CC3OC1CC(N)C(O)C(C)O1 (stereo not given) + Cc1cccc(N(C)C(=O)C2C(O)CCN2c2nc(C)cc(C(F)(F)F)c2C#N)c1"
units = "%"
readout_value = 30.2

[[record]]
molecule = "COc1ccc([C@@H](O)c2cc(-c3ncnc4cc(N5CCOCC5)ccc34)c(F)cc2Cl)nn1 + Nc1ccc(C#CCN(C(=O)Cc2ncc(C(F)(F)F)cc2C(F)(F)F)c2ccc(F)cc2)nn1"
units = "%"
readout_value = 47.6

[[record]]
molecule = "COc1ccc([C@@H](O)c2cc(-c3ncnc4cc(N5CCOCC5)ccc34)c(F)cc2Cl)nn1 + Cc1cccc(N(C)C(=O)C2C(O)CCN2c2nc(C)cc(C(F)(F)F)c2C#N)c1"
units = "%"
readout_value = 43.1

[[record]]
molecule = "C=CC(=O)N1CCN(c2nc(=O)n(-c3c(C)ccnc3C(C)C)c3nc(-c4c(O)cccc4F)c(F)cc23)C(C)C1 (stereo not given) + Cc1cccc(N(C)C(=O)C2C(O)CCN2c2nc(C)cc(C(F)(F)F)c2C#N)c1"
units = "%"
readout_value = 23.7

[[record]]
molecule = "CCCS(=O)(=O)Nc1ccc(F)c(C(=O)c2c[nH]c3ncc(-c4ccc(Cl)cc4)cc23)c1F + COC1C(OC(N)=O)C(O)C(Oc2ccc3c(O)c(NC(=O)c4ccc(O)c(CC=C(C)C)c4)c(=O)oc3c2C)OC1(C)C"
units = "%"
readout_value = 195

[[record]]
molecule = "COc1cc2cc(C(=O)CCC(=O)O)sc2cc1OC + Cc1cccc(N(C)C(=O)C2C(O)CCN2c2nc(C)cc(C(F)(F)F)c2C#N)c1"
units = "%"
readout_value = 85.7

[[record]]
molecule = "COc1cc2cc(C(=O)CCC(=O)O)sc2cc1OC + Nc1ccc(C#CCN(C(=O)Cc2ncc(C(F)(F)F)cc2C(F)(F)F)c2ccc(F)cc2)nn1"
units = "%"
readout_value = 92.2

[[record]]
molecule = "CCc1cc2c(N3CCc4c(cc(Cn5ccnc5)cc4-c4cn(C)nc4C(F)(F)F)C3=O)cc(C)nc2c(OC)n1 + COC1C(OC(N)=O)C(O)C(Oc2ccc3c(O)c(NC(=O)c4ccc(O)c(CC=C(C)C)c4)c(=O)oc3c2C)OC1(C)C"
units = "%"
readout_value = 123

[[record]]
molecule = "C#Cc1c(F)ccc2cc(O)cc(-c3ncc4c(N5CC6CCC(C5)N6)nc(OCC56CCCN5CC(F)C6)nc4c3F)c12 (stereo not given) + Nc1ccc(C#CCN(C(=O)Cc2ncc(C(F)(F)F)cc2C(F)(F)F)c2ccc(F)cc2)nn1"
units = "%"
readout_value = 26.6

[[record]]
molecule = "C=CC(=O)N1CCN(c2nc(=O)n(-c3c(C)ccnc3C(C)C)c3nc(-c4c(O)cccc4F)c(F)cc23)C(C)C1 (stereo not given) + Nc1ccc(C#CCN(C(=O)Cc2ncc(C(F)(F)F)cc2C(F)(F)F)c2ccc(F)cc2)nn1"
units = "%"
readout_value = 24.4

[[record]]
molecule = "COc1cccc2c1C(=O)c1c(O)c3c(c(O)c1C2=O)CC(O)(C(=O)CO)CC3OC1CC(N)C(O)C(C)O1 (stereo not given) + Nc1ccc(C#CCN(C(=O)Cc2ncc(C(F)(F)F)cc2C(F)(F)F)c2ccc(F)cc2)nn1"
units = "%"
readout_value = 36

[[record]]
molecule = "O=C(c1cc(Cc2n[nH]c(=O)c3ccccc23)ccc1F)N1CCN(C(=O)C2CC2)CC1 + Nc1ccc(C#CCN(C(=O)Cc2ncc(C(F)(F)F)cc2C(F)(F)F)c2ccc(F)cc2)nn1"
units = "%"
readout_value = 84.2

[[record]]
molecule = "O=C(Nc1ccc(O)c(NS(=O)(=O)c2ccc(F)cc2)c1)c1ccc(-c2ccccc2)cc1 + Cc1cccc(N(C)C(=O)C2C(O)CCN2c2nc(C)cc(C(F)(F)F)c2C#N)c1"
units = "%"
readout_value = 94.2

[[record]]
molecule = "Nc1ccn(C2OC(CO)C(O)C2(F)F)c(=O)n1 (stereo not given) + Nc1ccc(C#CCN(C(=O)Cc2ncc(C(F)(F)F)cc2C(F)(F)F)c2ccc(F)cc2)nn1"
units = "%"
readout_value = 34.1

[[record]]
molecule = "CC1COCCN1c1cc(C2(O)CC3CCC(C2)O3)c2cnn(-c3ccn[nH]3)c2n1 (stereo not given) + COC1C(OC(N)=O)C(O)C(Oc2ccc3c(O)c(NC(=O)c4ccc(O)c(CC=C(C)C)c4)c(=O)oc3c2C)OC1(C)C"
units = "%"
readout_value = 67.5

[[record]]
molecule = "CCc1cc2c(N3CCc4c(cc(Cn5ccnc5)cc4-c4cn(C)nc4C(F)(F)F)C3=O)cc(C)nc2c(OC)n1 + Nc1ccc(C#CCN(C(=O)Cc2ncc(C(F)(F)F)cc2C(F)(F)F)c2ccc(F)cc2)nn1"
units = "%"
readout_value = 122

[[record]]
molecule = "O=C(c1cc(Cc2n[nH]c(=O)c3ccccc23)ccc1F)N1CCN(C(=O)C2CC2)CC1 + COC1C(OC(N)=O)C(O)C(Oc2ccc3c(O)c(NC(=O)c4ccc(O)c(CC=C(C)C)c4)c(=O)oc3c2C)OC1(C)C"
units = "%"
readout_value = 33.7

[[record]]
molecule = "COc1cc(C2c3cc4c(cc3C(OC3OC5COC(C)OC5C(O)C3O)C3COC(=O)C23)OCO4)cc(OC)c1O (stereo not given) + COC1C(OC(N)=O)C(O)C(Oc2ccc3c(O)c(NC(=O)c4ccc(O)c(CC=C(C)C)c4)c(=O)oc3c2C)OC1(C)C"
units = "%"
readout_value = 39.4

